Record: MIC reported on Staphylococcus aureus 1061.
measure: MIC (µg/mL)

INSERT INTO measurements (molecule, recorded_number) VALUES
  ('CC[C@H]1OC(=O)[C@H](C)[C@@H](O[C@H]2C[C@@](C)(OC)[C@@H](O)[C@H](C)O2)[C@H](C)[C@@H](O[C@@H]2O[C@H](C)C[C@H](N(C)C)[C@H]2O)[C@](C)(O)C[C@@H](C)C(=NOCOCCN(C)C)[C@H](C)[C@@H](O)[C@]1(C)O [Example 22]', 0.4),
  ('CC[C@H]1OC(=O)[C@H](C)[C@@H](O[C@H]2C[C@@](C)(OC)[C@@H](O)[C@H](C)O2)[C@H](C)[C@@H](O[C@@H]2O[C@H](C)C[C@H](N(C)C)[C@H]2O)[C@](C)(O)C[C@@H](C)C(=NOCC(O)CN(C)C)[C@H](C)[C@@H](O)[C@]1(C)O (stereo partly shown) [Example 48]', 0.4),
  ('CCSCC(O)CON=C1[C@H](C)C[C@@](C)(O)[C@H](O[C@@H]2O[C@H](C)C[C@H](N(C)C)[C@H]2O)[C@@H](C)[C@H](O[C@H]2C[C@@](C)(OC)[C@@H](O)[C@H](C)O2)[C@@H](C)C(=O)O[C@H](CC)[C@@](C)(O)[C@H](O)[C@H]1C (stereo partly shown) [Example 16]', 0.4),
  ('CC[C@H]1OC(=O)[C@H](C)[C@@H](O[C@H]2C[C@@](C)(OC)[C@@H](O)[C@H](C)O2)[C@H](C)[C@@H](O[C@@H]2O[C@H](C)C[C@H](N(C)C)[C@H]2O)[C@](C)(O)C[C@@H](C)C(=NOCCN)[C@H](C)[C@@H](O)[C@]1(C)O [Example 45]', 0.6),
  ('CC[C@H]1OC(=O)[C@H](C)[C@@H](O[C@H]2C[C@@](C)(OC)[C@@H](O)[C@H](C)O2)[C@H](C)[C@@H](O[C@@H]2O[C@H](C)C[C@H](N(C)C)[C@H]2O)[C@](C)(O)C[C@@H](C)C(=NOCC(OC)OC)[C@H](C)[C@@H](O)[C@]1(C)O [Example 29]', 0.4),
  ('CC[C@H]1OC(=O)[C@H](C)[C@@H](O[C@H]2C[C@@](C)(OC)[C@@H](O)[C@H](C)O2)[C@H](C)[C@@H](O[C@@H]2O[C@H](C)C[C@H](N(C)C)[C@H]2O)[C@](C)(O)C[C@@H](C)C(=NOCCOCCO)[C@H](C)[C@@H](O)[C@]1(C)O [Example 17]', 0.4),
  ('CC[C@H]1OC(=O)[C@H](C)[C@@H](O[C@H]2C[C@@](C)(OC)[C@@H](O)[C@H](C)O2)[C@H](C)[C@@H](O[C@@H]2O[C@H](C)C[C@H](N(C)C)[C@H]2O)[C@](C)(O)C[C@@H](C)C(=NOCOCCNC)[C@H](C)[C@@H](O)[C@]1(C)O [Example 25]', 0.5);
